Some molecules, each annotated with its measured Human GLP-1 R activity (cAMP release), % activity with respect to control.
Biological target: Human GLP-1 receptor (Homo sapiens, UniProt P43220)
Construct: The full-length cDNA was cloned in pcDNA3.1(+); expressed in transfected cells
Sequence (P43220 24-463): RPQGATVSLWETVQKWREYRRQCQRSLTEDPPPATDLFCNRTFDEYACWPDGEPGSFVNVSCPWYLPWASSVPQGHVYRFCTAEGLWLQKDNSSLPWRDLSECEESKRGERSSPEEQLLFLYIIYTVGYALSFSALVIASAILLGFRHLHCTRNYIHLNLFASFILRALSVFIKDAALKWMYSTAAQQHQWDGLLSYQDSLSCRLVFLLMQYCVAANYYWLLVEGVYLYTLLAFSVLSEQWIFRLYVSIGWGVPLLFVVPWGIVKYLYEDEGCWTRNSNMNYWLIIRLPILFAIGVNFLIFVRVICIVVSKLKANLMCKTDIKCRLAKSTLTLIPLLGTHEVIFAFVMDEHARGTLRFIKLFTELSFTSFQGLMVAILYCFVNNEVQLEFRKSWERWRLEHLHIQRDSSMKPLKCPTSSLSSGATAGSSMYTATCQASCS
Test: In vitro Human GLP-1 R agonist activity (cyclic AMP determination) in CHO/human GLP1R cells
Format: cell-based
Conditions: 10 nM test compound
Only the number, expressed in %, is required.

molecule="CCc1cc(OC)ccc1-c1ccc(CC(NC(=O)[C@H](CC(=O)O)NC(=O)[C@H](CO)NC(=O)[C@@H](NC(=O)C(C)(Cc2ccccc2F)NC(=O)[C@@H](NC(=O)CNC(=O)C(CCC#N)NC(=O)C(C)(C)NC(=O)[C@@H](N)Cc2c[nH]cn2)[C@H](C)O)[C@H](C)O)C(=S)NC(CCCc2ccccc2)C(N)=O)cc1 (single isomer, unassigned) [compound 166]" reported_value=99
molecule="CCc1cc(OC)ccc1-c1ccc(CC(C(=O)N(C)C(CCCc2ccccc2)C(N)=O)N(C)C(=O)[C@H](CC(=O)O)N(C)C(=O)[C@H](CO)NC(=O)[C@@H](NC(=O)C(C)(Cc2ccccc2F)NC(=O)[C@@H](NC(=O)CNC(=O)C(CCC#N)NC(=O)C(C)(C)NC(=O)[C@@H](N)Cc2c[nH]cn2)[C@H](C)O)[C@H](C)O)cc1 (single isomer, unassigned) [compound 154]" reported_value=92

Could you now look at the following molecule, please?
The value of Human GLP-1 R activity (cAMP release), % activity with respect to control measured for the molecule CCc1cc(OC)ccc1-c1ccc(CC(CNC(CCCc2ccccc2F)C(N)=O)NC[C@H](CC(=O)O)NC(=O)[C@H](CO)NC(=O)[C@@H](NC(=O)C(C)(Cc2ccccc2F)NC(=O)[C@@H](NC(=O)CNC(=O)[C@H](CCC(N)=O)NC(=O)C(C)(C)NC(=O)[C@H](Cc2c[nH]cn2)NC(=O)OC)[C@H](C)O)[C@H](C)O)cc1 (single isomer, unassigned) [compound 200] turned out to be 88

====

Some compounds, each annotated with its measured Human GLP-1 R activity (cAMP release), % activity with respect to control.
Molecular target: Human GLP-1 receptor (Homo sapiens)
Construct: The full-length cDNA was cloned in pcDNA3.1(+); expressed in transfected cells
Assay: In vitro Human GLP-1 R agonist activity (cyclic AMP determination) in CHO/human GLP1R cells
Assay type: cell-based
Details: 100 nM test compound
Procedure: The novel peptidomimetics were screened for Human GLP-1 receptor (HGLP-1 R) agonist activity (in vitro), using the cAMP cell-based assay, in stably transfected CHO/human GLP1R cells. […] The trypsin was inactivated using Ham's F12 medium containing 10% NBCS and the cells were suspended in 2 ml of complete medium. […] Data is calculated as percent of control (Vehicle: water) and expressed as Mean±SD.
Only the number, expressed in %, is required.

As a guide, the following entries are already answered.
compound="CCc1cc(OC)ccc1-c1ccc(CC(CNC(CCCc2ccccc2F)C(N)=O)NC[C@H](CC(=O)O)NC(=O)[C@H](CO)NC(=O)[C@@H](NC(=O)C(C)(Cc2ccccc2F)NC(=O)[C@@H](NC(=O)CNC(=O)C(CCC#N)NC(=O)C(C)(C)NC(=O)[C@@H](N)Cc2c[nH]cn2)[C@H](C)O)[C@H](C)O)cc1 (single isomer, unassigned) [compound 204]" units_symbol=% reported_value=99
compound="CCc1cc(OC)ccc1-c1ccc(CC(NC(=O)[C@H](CC(=O)O)NC(=O)[C@H](CO)NC(=O)[C@@H](NC(=O)C(C)(Cc2ccccc2F)NC(=O)[C@@H](NC(=O)CNC(=O)[C@H](CC(C(F)(F)F)C(F)(F)F)NC(=O)C(C)(C)NC(=O)[C@@H](N)Cc2c[nH]cn2)[C@@H](C)O)[C@H](C)O)C(=O)NC(CCCc2ccccc2F)C(N)=O)cc1 (single isomer, unassigned) [compound 224]" units_symbol=% reported_value=99
compound="CCc1cc(OC)ccc1-c1ccc(CC(NC(=O)[C@H](CC(=O)O)NC(=O)[C@H](CO)NC(=O)[C@@H](NC(=O)[C@H](Cc2ccccc2)NC(=O)[C@@H](NC(=O)CNC(=O)[C@H](CCC(N)=O)NC(=O)[C@H](CO)NC(=O)[C@@H](N)Cc2c[nH]cn2)[C@@H](C)O)[C@@H](C)O)C(=O)NC(CCCc2ccccc2Cl)C(N)=O)cc1 (single isomer, unassigned) [compound 50]" units_symbol=% reported_value=98
compound="CCc1cc(OC)ccc1-c1ccc(CC(NC(=O)[C@H](CC(=O)O)NC(=O)[C@H](CO)NC(=O)[C@@H](NC(=O)C(C)(Cc2ccccc2F)NC(=O)[C@@H](NC(=O)CNC(=O)C(CCC#N)NC(=O)C(C)(C)NC(=O)[C@@H](N)Cc2c[nH]cn2)[C@H](C)O)[C@H](C)O)C(=O)NC(CCCc2ccccc2)C(N)=O)cc1 (single isomer, unassigned) [compound 114]" units_symbol=% reported_value=92
compound="CCc1cc(OC)ccc1-c1ccc(CC(NC(=O)[C@H](CC(=O)O)NC(=O)[C@H](CO)NC(=O)[C@@H](NC(=O)[C@H](Cc2ccccc2)NC(=O)[C@@H](NC(=O)CNC(=O)C(CCC#N)NC(=O)C(C)(C)NC(=O)[C@@H](N)Cc2c[nH]cn2)[C@@H](C)O)[C@@H](C)O)C(=O)NC(CCCc2cc(C)cc(C)c2)C(N)=O)cc1 (single isomer, unassigned) [compound 30]" units_symbol=% reported_value=86

With Human GLP-1 receptor (Homo sapiens) as the test system, CCc1cc(OC)ccc1-c1ccc(CC(NC(=O)[C@H](CC(=O)O)NC(=O)[C@H](CO)NC(=O)[C@@H](NC(=O)[C@H](Cc2ccccc2)NC(=O)[C@@H](NC(=O)CNC(=O)C(CCC#N)NC(=O)C(C)(C)NC(=O)[C@@H](N)Cc2c[nH]cn2)[C@@H](C)O)[C@@H](C)O)C(=O)NC(CCCc2ccc(F)cc2C(F)(F)F)C(N)=O)cc1 (single isomer, unassigned) [compound 80] showed Human GLP-1 R activity (cAMP release), % activity with respect to control of 99

Values from patent US8883963B2
